experiment: Cmax in C57BL/6 mouse plasma at 3 mg/kg, po administered as single dose measured upto 24 hrs by LC-MS/MS analysis; assay type: ADME, organism-based; design: time < 24 hrs, dose 3 mg/kg, route po
recorded.metric: Cmax (ng/mL)
Reply numerically in ng/mL, unit not repeated.

Exercise: I would be grateful if you could share the reported Cmax for O=C(Nc1ccc(F)cc1)N1CCn2ncc(-c3ccc(F)cc3)c2C1 .
Key: 407

###

assay: Metabolic stability in mouse liver microsomes assessed as clearance at 1 uM preincubated for 10 mins and measured upto 30 mins in presence of NADPH generating system by LC-MS/MS analysis; format: ADME, Microsome; conditions: time < 40 min
recorded.metric: CLhep predicted at 1 µM (mL/min/kg)
Reply numerically in mL/min/kg, unit not repeated.

Exercise: I would be grateful if you could share the reported CLhep predicted at 1 µM for O=C(Nc1ccc(F)cc1)N1CCn2ncc(-c3ccc(F)cc3)c2C1 .
Key: 56

Exercise: I would be grateful if you could share the reported CLhep predicted at 1 µM for O=C(Nc1ccc(F)c(Cl)c1)N1CCn2ncc(NC3CCCC3)c2C1 .
Key: 76

Exercise: I would be grateful if you could share the reported CLhep predicted at 1 µM for O=C(Nc1ccccc1)N1CCc2[nH]nc(-c3ccc(F)cc3)c2C1 .
Key: 63

Exercise: I would be grateful if you could share the reported CLhep predicted at 1 µM for C[C@H]1Cn2ncc(N3CCOCC3=O)c2CN1C(=O)Nc1cc(F)c(F)c(F)c1 .
Key: 29

Continue with the compound presented below.
Exercise: I would be grateful if you could share the reported CLhep predicted at 1 µM for O=C(Nc1ccc(F)c(Cl)c1)N1CCn2ncc(-c3ccccc3F)c2C1 .
Key: 74
